Ki overview
target or system: UniProtKB P23975
test: Binding assay to human norepinephrine transporter (NET) ([3H]-Nisoxetin)
applied conditions: Table 2, dual compounds, human NET enriched membranes, read-out: Ki (nM) NET Hum

CNCC[C@H](Oc1cccc2ncccc12)c1sccc1F [Example 84]	100 to 500 nM
CNCC[C@H](Oc1cccc2cnccc12)c1ccc(F)s1 [Example 50]	< 100 nM
CNCC[C@@H](Oc1cccc2ncccc12)c1ccc(Cl)s1 [Example 79]	500 to 1000 nM
CNCCC(Oc1cccc2cnccc12)C1CCOCC1 (stereo not shown) [Example 18]	100 to 500 nM
CNCC[C@@H](Oc1cccc2cnccc12)c1cccs1 [Example 14]	100 to 500 nM

State its Ki for this compound: CNCC[C@H](Oc1cccc2cnccc12)c1ccsc1 [Example 68] < 100 nM

State its Ki for this compound: CNCCC(Oc1cccc2ncccc12)c1ccc(Cl)s1 (stereo not shown) [Example 41] 100 to 500 nM

State its Ki for this compound: CNCCC(Oc1cccc2cnccc12)c1sccc1F (stereo not shown) [Example 46] < 100 nM

State its Ki for this compound: CNCC[C@@H](Oc1cccc2ccnc(C)c12)c1cccs1 [Example 62] 500 to 1000 nM

State its Ki for this compound: CNCCC(Oc1cccc2ccncc12)c1ccc(F)s1 (stereo not shown) [Example 49] 100 to 500 nM

###

target or system: human α2δ-1 subunit of Cav2.2 calcium channel (Homo sapiens (Human))
Sequence (P54289 25-1103): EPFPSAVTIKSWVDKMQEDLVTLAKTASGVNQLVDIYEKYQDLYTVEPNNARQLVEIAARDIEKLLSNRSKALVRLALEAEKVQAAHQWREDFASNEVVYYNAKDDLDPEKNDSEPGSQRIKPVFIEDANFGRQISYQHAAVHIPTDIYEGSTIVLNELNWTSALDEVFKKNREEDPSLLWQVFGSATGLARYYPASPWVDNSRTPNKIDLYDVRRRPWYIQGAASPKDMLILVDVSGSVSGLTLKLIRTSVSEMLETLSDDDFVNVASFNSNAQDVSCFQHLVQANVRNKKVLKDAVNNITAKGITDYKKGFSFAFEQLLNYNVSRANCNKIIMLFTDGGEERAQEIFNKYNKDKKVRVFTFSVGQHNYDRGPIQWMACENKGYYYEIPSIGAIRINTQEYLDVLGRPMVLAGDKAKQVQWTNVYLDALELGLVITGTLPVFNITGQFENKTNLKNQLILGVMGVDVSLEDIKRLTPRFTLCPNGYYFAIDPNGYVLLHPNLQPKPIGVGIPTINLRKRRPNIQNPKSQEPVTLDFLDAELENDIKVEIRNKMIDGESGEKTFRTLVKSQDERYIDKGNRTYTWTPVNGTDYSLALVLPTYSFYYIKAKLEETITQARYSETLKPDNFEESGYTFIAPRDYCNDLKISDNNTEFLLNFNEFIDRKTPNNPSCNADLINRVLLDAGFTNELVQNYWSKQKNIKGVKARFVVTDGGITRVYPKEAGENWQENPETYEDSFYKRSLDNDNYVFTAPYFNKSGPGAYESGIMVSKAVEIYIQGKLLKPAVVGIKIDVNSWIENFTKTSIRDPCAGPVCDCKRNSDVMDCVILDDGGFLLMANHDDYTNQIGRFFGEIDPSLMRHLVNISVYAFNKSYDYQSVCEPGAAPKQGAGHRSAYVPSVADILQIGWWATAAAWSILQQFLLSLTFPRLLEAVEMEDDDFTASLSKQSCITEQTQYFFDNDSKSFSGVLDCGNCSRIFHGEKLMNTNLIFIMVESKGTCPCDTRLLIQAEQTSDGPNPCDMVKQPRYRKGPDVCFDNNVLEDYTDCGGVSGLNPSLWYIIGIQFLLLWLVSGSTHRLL
test: Binding assay to human α2δ-1 subunit of Cav2.2 calcium channel ([3H]-Gabapentin)
applied conditions: Table 2, dual compounds, human α2δ-1 enriched membranes, read-out: Ki (nM) alpha2delta Hum
measurement label: Ki

The examples below pair each entry with its known result.
CNCC[C@@H](Oc1cnc2ccccc2c1)c1cccs1	≥ 3000 nM
CNCC[C@@H](Oc1cccc2ccncc12)c1cccs1	100 to 500 nM

Provide Ki, tested on human α2δ-1 subunit of Cav2.2 calcium channel (Homo sapiens (Human)), for CNCC[C@@H](Oc1cccc2ccncc12)c1ccc(F)s1 . 100 to 500 nM

Provide Ki, tested on human α2δ-1 subunit of Cav2.2 calcium channel (Homo sapiens (Human)), for CNCC[C@@H](Oc1cccc2cnccc12)c1sccc1F . 100 to 500 nM

###

target or system: human α2δ-1 subunit of Cav2.2 calcium channel (Homo sapiens (Human))
test: Binding assay to human α2δ-1 subunit of Cav2.2 calcium channel ([3H]-Gabapentin)
applied conditions: Table 2, dual compounds, human α2δ-1 enriched membranes, read-out: Ki (nM) alpha2delta Hum
Ki overview

The examples below pair each entry with its known result.
CNCCC(Oc1cccc2cnccc12)c1cccs1 (stereo not shown) [Example 3]	100 to 500 nM
CNCCC(Oc1cccc2ncccc12)c1nccs1 (stereo not shown) [Example 72]	100 to 500 nM
CNCC[C@H](Oc1cccc2ncccc12)c1ccsc1 [Example 67]	100 to 500 nM
CNCC[C@@H](Oc1cccc2ncccc12)c1sccc1F [Example 85]	500 to 3000 nM

Now look at this entry.
State its Ki for this molecule: CNCC[C@@H](Oc1cccc2cnccc12)c1cccs1 [Example 14] 100 to 500 nM

###

target or system: human norepinephrine transporter (NET) (Homo sapiens (Human), UniProt P23975)
Sequence (P23975 whole entry): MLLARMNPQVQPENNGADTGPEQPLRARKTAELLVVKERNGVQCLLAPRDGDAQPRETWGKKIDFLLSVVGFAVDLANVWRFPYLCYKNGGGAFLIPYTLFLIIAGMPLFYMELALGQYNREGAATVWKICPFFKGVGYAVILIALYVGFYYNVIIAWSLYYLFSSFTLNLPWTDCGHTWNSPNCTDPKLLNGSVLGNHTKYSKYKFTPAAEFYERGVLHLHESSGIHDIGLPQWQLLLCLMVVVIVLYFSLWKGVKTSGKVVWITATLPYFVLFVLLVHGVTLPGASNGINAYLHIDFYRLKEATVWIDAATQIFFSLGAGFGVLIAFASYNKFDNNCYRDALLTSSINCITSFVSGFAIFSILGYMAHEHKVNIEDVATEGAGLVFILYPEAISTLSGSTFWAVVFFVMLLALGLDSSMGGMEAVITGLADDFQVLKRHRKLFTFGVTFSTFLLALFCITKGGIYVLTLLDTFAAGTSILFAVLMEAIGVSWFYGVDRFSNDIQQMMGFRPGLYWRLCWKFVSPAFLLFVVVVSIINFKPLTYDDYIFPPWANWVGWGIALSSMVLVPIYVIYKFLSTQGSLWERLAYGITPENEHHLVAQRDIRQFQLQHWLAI
test: Binding assay to human norepinephrine transporter (NET) ([3H]-Nisoxetin)
applied conditions: Table 2, dual compounds, human NET enriched membranes, read-out: Ki (nM) NET Hum
measurement label: Ki

The examples below pair each entry with its known result.
CNCC[C@H](Oc1cccc2ccncc12)c1sccc1F	100 to 500 nM
CNCC[C@H](Oc1cccc2ccncc12)c1cccs1 (stereo in doubt) [Example 12]	100 to 500 nM
CNCC[C@H](Oc1cccc2ccncc12)c1cccs1 [Example 10]	500 to 1000 nM
CNCC[C@H](Oc1cccc2ncccc12)c1cccs1	500 to 1000 nM
CNCCC(Oc1cccc2cnccc12)c1ccc(F)s1 (stereo not shown)	100 to 500 nM

Now look at this entry.
State its Ki for this compound: CNCCC(Oc1cccc2cnccc12)c1cccnc1 (stereo not shown) 100 to 500 nM

// provenance: patent US10941138B2
